Source of measurements: patent US9163012B2

- Test target: 11β-HSD1 (Homo sapiens (Human))
- Experiment notes: Biological Test Example 1: inhibition of a microsomal preparation of 11β-HSD1 (SPA)
- Format: biochemical
- Condition set: read-out: Average % inhibition at 100 nM, Biological Test Example 1; 100 nM compound
Endpoint: inhibition at 0.1 µM (%)

1) NC(=O)[C@]12CC3CC(C1)[C@@H](OC(=O)N1CC[C@H](n4c(=O)[nH]c5ccccc54)C1)C(C3)C2 [EXAMPLE 60] : 93.9
2) O=C(OC1C2CC3CC(C2)CC1C3)N1CCC(CO)(c2ccccc2)CC1 (stereo not shown) [EXAMPLE 30] : 87.4
3) NC(=O)[C@]12CC3CC(C1)[C@@H](OC(=O)N1CC[C@@H](n4c(=O)[nH]c5ccccc54)C1)C(C3)C2 [EXAMPLE 61] : 89.9
4) O=C(OC1C2CC3CC1CC(O)(C3)C2)N1CCC(c2cc[n+]([O-])cc2)C1 (stereo not shown) [EXAMPLE 22] : 3.7
5) NC(=O)[C@]12CC3CC(C1)[C@@H](OC(=O)N1CCCC1c1ncc(Cl)cn1)C(C3)C2 (stereo partly shown) [EXAMPLE 45] : 87.5
6) NC(=O)[C@]12CC3CC(C1)[C@@H](OC(=O)N1CC[C@H](n4c(=O)[nH]c5cc(F)ccc54)C1)C(C3)C2 [EXAMPLE 63] : 91.2
7) NC(=O)[C@]12CC3CC(C1)[C@@H](OC(=O)N1CC[C@H](Oc4ncc(F)cc4F)C1)C(C3)C2 [EXAMPLE 2] : 96.2

---

- Test target: 11β-HSD1 (Homo sapiens (Human))
- Experiment notes: Biological Test Example 1: inhibition of a microsomal preparation of 11β-HSD1 (SPA)
- Type: biochemical
- Condition set: read-out: Average % inhibition at 100 nM, Biological Test Example 1; 100 nM compound
# key: entry, value: inhibition at 0.1 µM
Endpoint: inhibition at 0.1 µM (%)

1. NC(=O)[C@]12CC3CC(C1)[C@@H](OC(=O)N1CC[C@H](n4c(=O)n(CCO)c5cc(F)ccc54)C1)C(C3)C2 : 93
2. O=C(OC1C2CC3CC1CC(O)(C3)C2)N1CCC(c2ccncc2)C1 (stereo not drawn) : 81.4
3. Cn1ccc(-c2csc([C@H]3CCCN3C(=O)OC3C4CC5CC(C4)CC3C5)n2)cc1=O (stereo partly drawn) : 95.8
4. O=C(OC1C2CC3CC(C2)CC1C3)N1CCC[C@@H]1c1nc(-c2ccncc2)cs1 (stereo partly drawn) : 98.2
5. Cn1c(=O)n([C@@H]2CCN(C(=O)O[C@H]3C4CC5CC3C[C@](C(N)=O)(C5)C4)C2)c2ncc(Cl)cc21 : 99.2
6. NC(=O)[C@]12CC3CC(C1)[C@@H](OC(=O)N1CC[C@H](Oc4ccc(C(F)(F)F)cn4)C1)C(C3)C2 : 96.9
7. Cc1nnc(C2CCCN(C(=O)OC3C4CC5CC3CC(O)(C5)C4)C2)o1 (stereo not drawn) : 69.9
8. Cn1ccc(-c2csc([C@H]3CCCN3C(=O)O[C@H]3C4CC5CC3C[C@](C(N)=O)(C5)C4)n2)cc1=O : 93.1
9. NC(=O)[C@]12CC3CC(C1)[C@@H](OC(=O)N1CC[C@@H](Oc4ccc5nccn5n4)C1)C(C3)C2 : 92.1
10. Cn1c(C2CCN(C(=O)O[C@H]3C4CC5CC3C[C@](C(N)=O)(C5)C4)C2)nc2ccccc21 (stereo partly drawn) : 44.1
11. Cn1ccc(-c2csc(C3CCN(C(=O)O[C@H]4C5CC6CC4C[C@](C(N)=O)(C6)C5)C3)n2)cc1=O (stereo partly drawn) : 96.7
12. Cn1c(=O)n([C@H]2CCN(C(=O)O[C@H]3C4CC5CC3C[C@](C(N)=O)(C5)C4)C2)c2c(Cl)cccc21 : 96.6
13. O=C(OC1C2CC3CC(C2)CC1C3)N1CCC(c2ncc(Cl)cn2)C1 (stereo not drawn) : 96.8
14. Cc1nc2cccc(Cl)c2n1[C@H]1CCN(C(=O)OC2C3CC4CC2CC(C(N)=O)(C4)C3)C1 (stereo partly drawn) : 93.6
15. Cc1noc(C2CCN(C(=O)O[C@H]3C4CC5CC3C[C@](C(N)=O)(C5)C4)C2)n1 (stereo partly drawn) : 79.3

---

- Test target: 11β-HSD1 (Homo sapiens (Human), UniProt P28845)
- Sequence (P28845 whole entry): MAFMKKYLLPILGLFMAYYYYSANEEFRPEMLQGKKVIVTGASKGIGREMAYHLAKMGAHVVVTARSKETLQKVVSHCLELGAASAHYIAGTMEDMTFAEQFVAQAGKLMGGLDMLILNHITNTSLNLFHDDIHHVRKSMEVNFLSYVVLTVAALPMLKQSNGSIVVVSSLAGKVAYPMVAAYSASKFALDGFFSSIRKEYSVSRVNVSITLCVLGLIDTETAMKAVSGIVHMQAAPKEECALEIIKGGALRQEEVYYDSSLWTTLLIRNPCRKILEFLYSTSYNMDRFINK
- Experiment notes: Biological Test Example 1: inhibition of a microsomal preparation of 11β-HSD1 (SPA)
- Type: biochemical
- Condition set: Biological Test Example 1; read-out: IC50
// reported IC50 for each item listed
Endpoint: IC50 (nM)

1) NC(=O)[C@]12CC3CC(C1)[C@@H](OC(=O)N1CC[C@H](n4c(=O)[nH]c5ccccc54)C1)C(C3)C2 [EXAMPLE 60] : 0.76
2) NC(=O)[C@]12CC3CC(C1)[C@@H](OC(=O)N1CC[C@H](Oc4ncc(F)cc4F)C1)C(C3)C2 [EXAMPLE 2] : 0.68
3) NC(=O)[C@]12CC3CC(C1)[C@@H](OC(=O)N1CCC(c4ncc(Cl)cn4)C1)C(C3)C2 (single isomer, unassigned) [EXAMPLE 26 Isomer 1b] : 1.91
4) Cc1cnc(C2CCN(C(=O)OC3C4CC5CC3CC(C(N)=O)(C5)C4)C2)nc1 (single isomer, unassigned) [EXAMPLE 39 Isomer 1] : 2.99
5) Cn1cc(-c2cnc(C3CCN(C(=O)OC4C5CC6CC4CC(C(N)=O)(C6)C5)C3)nc2)ccc1=O (single isomer, unassigned) [EXAMPLE 58 Isomer 1] : 33.3
6) O=C(OC1C2CC3CC1CC(O)(C3)C2)N1CCC(c2cc[n+]([O-])cc2)C1 (stereo not shown) [EXAMPLE 22] : 100
7) CC(C)(O)CC1(c2ccccc2)CCN(C(=O)O[C@H]2C3CC4CC2C[C@](C(N)=O)(C4)C3)C1 (stereo partly shown) [EXAMPLE 49] : 2.07

---

- Test target: 11β-HSD1 (Homo sapiens (Human), UniProt P28845)
- Experiment notes: Biological Test Example 1: inhibition of a microsomal preparation of 11β-HSD1 (SPA)
- Format: biochemical
- Condition set: Biological Test Example 1; microsomes from CHO cells overexpressing human 11β-HSD1; read-out: IC50 Range
pIC50: −log10 of the molar value.
Endpoint: pIC50

1) O=C(OC1C2CC3CC1CC(C(=O)O)(C3)C2)N1CCC(c2ncc(Cl)cn2)C1 (single isomer, unassigned) [EXAMPLE 46 Isomer 1] : < 7.00
2) Cn1c(=O)n([C@H]2CCN(C(=O)O[C@H]3C4CC5CC3C[C@](C(N)=O)(C5)C4)C2)c2ccc(C#N)cc21 : > 7.00
3) NC(=O)[C@]12CC3CC(C1)[C@@H](OC(=O)N1CCCC1c1ccccn1)C(C3)C2 (stereo partly shown) : > 7.00
4) Cn1ccc(-c2csc(C3CCN(C(=O)O[C@H]4C5CC6CC4C[C@](C(N)=O)(C6)C5)C3)n2)cc1=O (stereo partly shown) : > 7.00
5) Cc1cc(C2CCN(C(=O)OC3C4CC5CC3CC(C(N)=O)(C5)C4)C2)nn1C (single isomer, unassigned) [EXAMPLE 40 Isomer 2] : < 7.00
6) O=C(OC1C2CC3CC(C2)CC1C3)N1CCC(c2nc(-c3ccncc3)cs2)C1 (stereo not shown) : > 7.00
7) NC(=O)[C@]12CC3CC(C1)[C@@H](OC(=O)N1CC[C@@H](Oc4ncc(F)cc4F)C1)C(C3)C2 (relative stereo) : > 7.00
8) Cn1c(=O)n([C@@H]2CCN(C(=O)O[C@H]3C4CC5CC3C[C@](C(N)=O)(C5)C4)C2)c2ncc(Cl)cc21 : > 7.00
9) NC(=O)[C@]12CC3CC(C1)[C@@H](OC(=O)N1CC[C@@H](Oc4ccc5nccn5n4)C1)C(C3)C2 : > 7.00
10) COC(=O)COCC1(c2ccccc2)CCN(C(=O)OC2C3CC4CC(C3)CC2C4)CC1 (stereo not shown) : > 7.00
11) NC(=O)[C@]12CC3CC(C1)[C@@H](OC(=O)N1CC[C@@H](Oc4ccc(C(F)(F)F)cn4)C1)C(C3)C2 : > 7.00
12) Cc1cnc(C2CCN(C(=O)OC3C4CC5CC3CC(C(N)=O)(C5)C4)C2)nc1 (single isomer, unassigned) [EXAMPLE 39 Isomer 1] : > 7.00
13) O=C(OC1C2CC3CC(C2)CC1C3)N1CCC(CO)(c2ccccc2)CC1 (stereo not shown) : > 7.00
14) Cn1c(=O)n([C@H]2CCN(C(=O)O[C@H]3C4CC5CC3C[C@](C(N)=O)(C5)C4)C2)c2c(Cl)cccc21 : > 7.00
15) O=C(OC1C2CC3CC1CC(O)(C3)C2)N1CCC(c2ccncc2)C1 (stereo not shown) : > 7.00
16) Cc1cc(C)nc(C2CCN(C(=O)OC3C4CC5CC3CC(C(N)=O)(C5)C4)C2)n1 (single isomer, unassigned) [EXAMPLE 43 Isomer 1] : > 7.00
17) NC(=O)c1cnc(C2CCN(C(=O)OC3C4CC5CC3CC(C(N)=O)(C5)C4)C2)nc1 (single isomer, unassigned) [EXAMPLE 47 Isomer 1] : < 7.00
18) Cn1ccc(-c2csc([C@H]3CCCN3C(=O)O[C@H]3C4CC5CC3C[C@](C(N)=O)(C5)C4)n2)cc1=O : > 7.00
19) Cn1ccc(-c2csc([C@H]3CCCN3C(=O)OC3C4CC5CC(C4)CC3C5)n2)cc1=O (stereo partly shown) : > 7.00
20) Cc1nc2cccc(Cl)c2n1[C@H]1CCN(C(=O)OC2C3CC4CC2CC(C(N)=O)(C4)C3)C1 (stereo partly shown) : > 7.00
21) NC(=O)[C@]12CC3CC(C1)[C@@H](OC(=O)N1CC[C@@H](n4c(=O)[nH]c5cccc(Cl)c54)C1)C(C3)C2 : > 7.00
22) Cn1cc(-c2cnc(C3CCN(C(=O)OC4C5CC6CC4CC(C(N)=O)(C6)C5)C3)nc2)ccc1=O (single isomer, unassigned) [EXAMPLE 58 Isomer 2] : < 7.00
23) Cn1c(=O)n([C@@H]2CCN(C(=O)O[C@H]3C4CC5CC3C[C@](C(N)=O)(C5)C4)C2)c2ccccc21 : > 7.00
24) NC(=O)[C@]12CC3CC(C1)[C@@H](OC(=O)N1CC[C@H](Oc4ncc(F)cc4F)C1)C(C3)C2 : > 7.00
25) Cn1c(C2CCCN2C(=O)OC2C3CC4CC2CC(C(N)=O)(C4)C3)nc2ccccc21 (stereo not shown) : > 7.00
26) NC(=O)[C@]12CC3CC(C1)[C@@H](OC(=O)N1CCC[C@@H]1c1nc(-c4cc[nH]c(=O)c4)cs1)C(C3)C2 : > 7.00
27) O=C(OC1C2CC3CC1CC(C(=O)O)(C3)C2)N1CCC(c2ncc(Cl)cn2)C1 (single isomer, unassigned) [EXAMPLE 46 Isomer 2] : < 7.00
28) NC(=O)[C@]12CC3CC(C1)[C@@H](OC(=O)N1CC[C@H](n4c(=O)[nH]c5cccc(Cl)c54)C1)C(C3)C2 : > 7.00
